meta.source: ChEMBL document CHEMBL1132427

Molecular target: NAD(P)H dehydrogenase [quinone] 1 (Homo sapiens)
Assay: Ability to serve as substrate for human NAD(P)H quinone reductase determined by measuring reduction of cytochrome C at 550 nM
Conditions: 25 µM
Provide the reported Substrate specificity of each item.
Numbers only.

Reference set (5 entries):
{"compound": "Cc1c(CO)c2c(n1C)C(=O)C=C(N1CC1C)C2=O (centres undefined)", "Substrate specificity": 7.4}
{"compound": "Cn1c2c(c(CO)c1C1CC1)C(=O)C(N1CC1)=CC2=O", "Substrate specificity": 14.9}
{"compound": "Cc1c(CO)c2c(n1C)C(=O)C=C(N1CC1)C2=O", "Substrate specificity": 9.9}
{"compound": "CC1CN1C1=CC(=O)c2c(c(CO)c(/C=C/CO)n2C)C1=O (centres undefined)", "Substrate specificity": 1.5}
{"compound": "Cn1c(/C=C/CO)cc2c1C(=O)C=C(N1CC1)C2=O", "Substrate specificity": 41.6}

# batch size: 3; output Substrate specificity per entry
1. COC1=CC(=O)c2c(c(COC(N)=O)c(C(C)C)n2C)C1=O
2. Cn1cc(CO)c2c1C(=O)C=C(N1CC1)C2=O
3. COC1=CC(=O)c2c(c(COC(N)=O)c(C3CC3)n2C)C1=O

Response:
1: 0.82; 2: 52.7; 3: 0.34
